species on record: Rattus norvegicus; assay: Binding affinity at [3H]SB-204269 binding site expressed as pKi; format: functional
Mark Fulfilled for reported Log Ki of -8 or greater; mark Not fulfilled for anything smaller.

I'd appreciate it if you could say whether `CN1Cc2cc(NC(=O)c3ccccc3)cnc2C(C)(C)C1` has Log Ki at least equal to -8.
Fulfilled

----------
test: Oral bioavailability in rat; format: ADME, organism-based; conditions: in vivo
Metric: bioavailability (%)
Answers are plain numbers, in %.

The reported value for `COc1ccc(C(=O)Nc2ccc3c(c2)CN(C)CC3)cc1C(F)(F)F` in terms of bioavailability is 2

----------
test: Oral bioavailability at the dose of 2 mg/kg in rat; type: ADME, organism-based; conditions: in vivo
Metric: bioavailability

// field: bioavailability; key: `COc1ccc(C(=O)Nc2cnc3c(c2)CNCC3(C)C)cc1C(F)(F)F` ; value = > 50%

----------
assay: Oral bioavailability; assay type: ADME, organism-based; settings: rat, in vivo
Metric: bioavailability (%)
Give bare numbers, in %.

Short answer for `COc1ccc(C(=O)Nc2cnc3c(c2)CN(C)CC3(C)C)cc1C(F)(F)F` : bioavailability was 20

----------
experiment: Plasma clearance was determined; format: ADME, organism-based; conditions: rat
Metric: clearance (L/h/kg)
Give bare numbers, in L/h/kg.

The measured clearance associated with `COc1ccc(C(=O)Nc2cnc3c(c2)CNCC3(C)C)cc1C(F)(F)F` reads 1.8

----------
species on record: Rattus norvegicus; assay: Binding affinity at [3H]SB-204269 binding site expressed as pKi; format: functional
Hi there, I'd appreciate the recorded Log Ki for every entry that follows.
Give bare numbers.

Consider the reported Log Ki for these compounds:
Smiles str | Log Ki
CCOc1ccc(C(=O)Nc2cnc3c(c2)CN(C)CC3(C)C)cc1C(F)(F)F | -8.5
COc1ccc(C(=O)Nc2cnc3c(c2)CNCC3(C)C)cc1Br | -8.7

Batch: Log Ki for all items listed.
1. COc1ccc(C(=O)Nc2cnc3c(c2)CNCC3(C)C)cc1Cl
2. COc1ccc(C(=O)Nc2cnc3c(c2)CNCC3(C)C)cc1F
3. COc1ccc(C(=O)Nc2cnc3c(c2)CNCC3(C)C)cc1C(F)(F)F
4. COc1ccc(C(=O)Nc2cnc3c(c2)CN(C)CC3(C)C)cc1C(F)(F)F

[-8.1, -7.2, -8.7, -8.8]

----------
Assignment: determine reported Log Ki for the given molecules.
species on record: Rattus norvegicus; experiment: Binding affinity at [3H]SB-204269 binding site expressed as pKi; type: functional

Smiles str | Log Ki
CCOc1ccc(C(=O)Nc2cnc3c(c2)CNCC3(C)C)cc1C(F)(F)F | -8.6
COc1ccc(C(=O)Nc2cnc3c(c2)CN(C)CC3(C)C)cc1Cl | -8.5
COc1ccc(C(=O)Nc2ccc3c(c2)CN(C)CC3)cc1C(F)(F)F | -8.9
COc1ccc(C(=O)Nc2cnc3c(c2)CN(C)CC3(C)C)cc1C#N | -7.3
COc1ccc(C(=O)Nc2cnc3c(c2)CN(C)CC3(C)C)cc1F | -7.3
CC(C)Oc1ccc(C(=O)Nc2cnc3c(c2)CNCC3(C)C)cc1C(F)(F)F | -8.4

Consider now this further molecule.
Entry `COc1ccc(C(=O)Nc2cnc3c(c2)CN(C)CC3(C)C)cc1Br` — recorded Log Ki = -8.6
